target: human CCR8 (human, UniProt P51685 1-355); assay: cell-based or functional assay
Sequence (P51685 whole entry): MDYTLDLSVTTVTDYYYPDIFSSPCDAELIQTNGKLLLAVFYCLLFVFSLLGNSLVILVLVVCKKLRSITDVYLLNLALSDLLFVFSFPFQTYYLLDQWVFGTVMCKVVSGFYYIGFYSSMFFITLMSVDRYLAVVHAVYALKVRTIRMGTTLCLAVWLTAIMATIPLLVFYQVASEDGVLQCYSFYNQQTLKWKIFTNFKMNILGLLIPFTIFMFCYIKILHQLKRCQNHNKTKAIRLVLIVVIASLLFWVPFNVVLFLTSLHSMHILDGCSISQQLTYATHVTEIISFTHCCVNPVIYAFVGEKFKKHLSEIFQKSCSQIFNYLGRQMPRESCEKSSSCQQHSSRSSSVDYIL
Provide the recorded Emax (%), NK cell mediated cytotoxicity (ADCC) on CCR8-expressing Treg for the entries that follow.

Past entries and their recorded results:
>  <Binder>
hu305-5W-3a-AF (antibody, V domains shown, also called afucosylated hu305-5W-3a) VH: QVQLKQSGPGLVKPSETLSLTCTVSGFSLAVYGVHWVRQPPGKGLEWLGVIWRGGTTDYNPSLKSRLTFSKDSSKSQVSLKLSSVTAADTAVYYCAKNRVTTVVAPNFYAMDYWGQGTLVTVSS VL: DIVMTQSPDSLAVSLGERATINCKSSQSLLYSGNQKNYLAWYQQKPGQPPKLLIYWASTRKSGVPDRFSGSGSGTDFTLTISSLKAEDVAVYYCQQYYTYPLTFGQGTRLEIK

>  <Observed Value>
75.5%

$$$$
>  <Binder>
hu305-4F-2m-AF (antibody, V domains shown) VH: QVQLQESGPGLVKPSQTLSLTCTVSGFSLAVYGVHWVRQPPGKGLEWLGVIWRGGTTDYNPSLKSRLTFSKDSSKSQVSLKLSSVTAADTAVYYCAKNRVTTVVAPNFYAMDYWGQGTLVTVSS VL: DIVMTQSPDSLAVSLGERVTINCKSSQSLLYSGNQKNYLAWYQQKPGQSPKLLIYWASTRKSGVPDRFSGSGSGTDFTLTISSLQAEDVAAYYCQQYYTYPLTFGQGTRLEIK

>  <Observed Value>
70.9%

$$$$
>  <Binder>
hu305-4F-2l-AF (antibody, V domains shown, also called hu305-4F-21-AF; hu305-4F-21) VH: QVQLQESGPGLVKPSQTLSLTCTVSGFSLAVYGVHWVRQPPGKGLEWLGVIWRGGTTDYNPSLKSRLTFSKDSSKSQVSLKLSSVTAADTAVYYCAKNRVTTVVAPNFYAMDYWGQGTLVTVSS VL: DIVMTQSPDSLAVSLGERVTMNCKSSQSLLYSGNQKNYLAWYQQKPGQSPKLLIYWASTRKSGVPDRFSGSGSGTDFTLTISSLQAEDVAAYYCQQYYTYPLTFGQGTRLEIK

>  <Observed Value>
72.3%

$$$$
>  <Binder>
Ch305-AF (antibody, V domains shown, human IgG1/kappa; also called afucosylated Ch305) VH: QVQMKQSGPSLVQPSQSLSITCTVSGFSLTSYGVHWVRQSPGKGLEWLGVIWRGGTTDYNAAFMSRLSFTKDSSKSQVFFKLNSLQADDTAIYYCAKNRVTTVVAPNFYAMDYWGQGTSVTVSS VL: DIVMTQSPSSLAVSVGEKVTMSCKSSQSLLYSGNQKNYLAWYQQKPGQSPKLLIYWASTRKSGVPDRLTGSGSGTDFTLTISSVKAEDLAAYYCQQYYTYPLTFGAGTRLEIK

>  <Observed Value>
75.1%

$$$$

The measured Emax (%), NK cell mediated cytotoxicity (ADCC) on CCR8-expressing Treg associated with hu305-5P-3a-AF (antibody, V domains shown) VH: QVQLKQSGPGLVKPSETLSLTCTVSGFSLTSYGVHWVRQPPGKGLEWLGVIWRGGTTDYNPSLKSRVTFSKDSSKNQVSLKLSSVTAADTAVYYCAKNRVTTVVAPNFYAMDYWGQGTLVTVSS VL: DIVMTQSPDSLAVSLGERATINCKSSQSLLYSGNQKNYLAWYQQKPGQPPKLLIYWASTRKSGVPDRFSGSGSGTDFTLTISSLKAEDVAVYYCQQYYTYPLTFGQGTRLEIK reads 73.7%
